Values were extracted from paper PMC8419314.

Biological target: rNaV1.4 channel (Rattus norvegicus)
Construct: expressed in transfected cells; host or cells: HEK 293
Test: automated patch-clamp 17-pulse protocol (SDO, RFI, SSI), IonFlux Mercury, cell ensembles
Assay type: cell-based
Details: pulse #17, SSI section; read-out: IC50 #17 (−70 mV)
pIC50: −log10 of the molar value.
Each entry below carries its recorded pIC50.
PROPERTY: pIC50

compound=CCN(CC)CC(=O)Nc1c(C)cccc1C property=pIC50 reported_result=4.64
compound="CCCCN1CCCCC1C(=O)Nc1c(C)cccc1C (stereo not shown)" property=pIC50 reported_result=4.79
compound=CCOC(=O)c1ccc(N)cc1 property=pIC50 reported_result=3.77
compound=Nc1nc2ccc(OC(F)(F)F)cc2s1 property=pIC50 reported_result=5.16

* * *

Each entry below carries its recorded IC50.
Molecular target: rNaV1.4 channel (Rattus norvegicus)
Construct: expressed in transfected cells; host or cells: HEK 293
Test: automated patch-clamp 17-pulse protocol (SDO, RFI, SSI), IonFlux Mercury, cell ensembles
Assay type: cell-based
Conditions: pulse #5, SDO section; read-out: IC50 #5 (after 65.7 ms depol.)
PROPERTY: IC50 (µM)

compound="CCCCN1CCCCC1C(=O)Nc1c(C)cccc1C (stereo not shown)" reported_result=27.3
compound=Nc1nc2ccc(OC(F)(F)F)cc2s1 reported_result=27.4
compound=CCN(CC)CC(=O)Nc1c(C)cccc1C reported_result=31.9
compound=CCOC(=O)c1ccc(N)cc1 reported_result=1300

* * *

Biological target: rNaV1.4 channel (Rattus norvegicus)
Construct: expressed in transfected cells; host or cells: HEK 293
Assay: automated patch-clamp 17-pulse protocol (SDO, RFI, SSI), IonFlux Mercury, cell ensembles
Assay type: cell-based
Settings: read-out: IC50 #17 (−70 mV)
pIC50: −log10 of the molar value.
PROPERTY: pIC50

compound=NC1=N[C@H](O)[C@H]2[C@H]3O[C@]4(O)O[C@@H]([C@@H](O)[C@@]2(N1)[C@@H]4O)[C@]3(O)CO reported_result=7.74

* * *

Target: rNaV1.4 channel (Rattus norvegicus, UniProt P15390)
Construct: expressed in transfected cells; host or cells: HEK 293
Sequence (P15390 whole entry): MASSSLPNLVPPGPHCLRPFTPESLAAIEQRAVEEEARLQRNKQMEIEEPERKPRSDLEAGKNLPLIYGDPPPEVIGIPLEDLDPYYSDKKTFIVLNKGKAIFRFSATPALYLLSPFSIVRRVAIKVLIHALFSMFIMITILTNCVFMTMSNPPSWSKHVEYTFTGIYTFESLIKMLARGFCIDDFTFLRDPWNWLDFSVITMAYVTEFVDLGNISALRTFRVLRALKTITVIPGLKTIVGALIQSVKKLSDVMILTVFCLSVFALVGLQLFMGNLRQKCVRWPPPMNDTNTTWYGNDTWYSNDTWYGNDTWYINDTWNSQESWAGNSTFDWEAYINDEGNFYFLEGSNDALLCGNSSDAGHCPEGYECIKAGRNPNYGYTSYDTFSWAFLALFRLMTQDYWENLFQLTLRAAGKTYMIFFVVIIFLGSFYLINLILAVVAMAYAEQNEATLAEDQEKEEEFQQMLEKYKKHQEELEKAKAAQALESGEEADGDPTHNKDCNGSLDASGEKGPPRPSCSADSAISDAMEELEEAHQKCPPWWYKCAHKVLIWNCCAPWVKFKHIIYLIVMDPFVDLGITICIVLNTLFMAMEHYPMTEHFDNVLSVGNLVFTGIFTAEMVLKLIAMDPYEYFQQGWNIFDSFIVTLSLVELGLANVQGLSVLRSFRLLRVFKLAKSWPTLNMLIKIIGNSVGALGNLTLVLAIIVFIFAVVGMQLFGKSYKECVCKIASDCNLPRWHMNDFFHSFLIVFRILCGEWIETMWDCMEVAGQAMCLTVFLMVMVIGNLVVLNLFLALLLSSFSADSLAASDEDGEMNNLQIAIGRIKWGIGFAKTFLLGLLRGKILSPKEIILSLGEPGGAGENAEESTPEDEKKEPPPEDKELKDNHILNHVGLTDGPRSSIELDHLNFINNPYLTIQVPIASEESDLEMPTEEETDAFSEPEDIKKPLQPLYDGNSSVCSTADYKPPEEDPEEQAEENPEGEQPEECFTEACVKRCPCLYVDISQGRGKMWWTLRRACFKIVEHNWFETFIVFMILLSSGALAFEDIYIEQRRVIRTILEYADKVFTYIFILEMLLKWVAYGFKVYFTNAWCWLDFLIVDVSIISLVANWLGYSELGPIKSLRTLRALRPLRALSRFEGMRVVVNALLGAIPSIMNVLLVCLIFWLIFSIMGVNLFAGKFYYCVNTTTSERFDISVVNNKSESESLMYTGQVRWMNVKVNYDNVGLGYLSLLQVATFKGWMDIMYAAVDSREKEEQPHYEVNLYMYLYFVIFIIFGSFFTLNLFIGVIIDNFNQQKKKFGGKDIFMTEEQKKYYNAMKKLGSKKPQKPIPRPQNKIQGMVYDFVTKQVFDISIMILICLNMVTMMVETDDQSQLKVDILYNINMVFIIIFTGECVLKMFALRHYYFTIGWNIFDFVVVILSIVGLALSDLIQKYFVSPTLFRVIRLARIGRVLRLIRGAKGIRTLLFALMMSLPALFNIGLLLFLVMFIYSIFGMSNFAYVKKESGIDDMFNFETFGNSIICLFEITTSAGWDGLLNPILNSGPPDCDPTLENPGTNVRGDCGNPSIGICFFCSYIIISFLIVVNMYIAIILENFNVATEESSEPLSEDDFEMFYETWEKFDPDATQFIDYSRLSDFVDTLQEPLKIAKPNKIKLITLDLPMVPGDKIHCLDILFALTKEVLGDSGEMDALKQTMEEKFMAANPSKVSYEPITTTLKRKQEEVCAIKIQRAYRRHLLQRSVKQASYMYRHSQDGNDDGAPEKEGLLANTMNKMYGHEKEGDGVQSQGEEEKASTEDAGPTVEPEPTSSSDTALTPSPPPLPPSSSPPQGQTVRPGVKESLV
Assay: automated patch-clamp 17-pulse protocol (SDO, RFI, SSI), IonFlux Mercury, cell ensembles
Assay type: cell-based
Settings: read-out: IC50 #5 (after 65.7 ms depol.)
pIC50: −log10 of the molar value.
PROPERTY: pIC50

compound=NC1=N[C@H](O)[C@H]2[C@H]3O[C@]4(O)O[C@@H]([C@@H](O)[C@@]2(N1)[C@@H]4O)[C@]3(O)CO reported_result=7.82

* * *

Each entry below carries its recorded IC50.
Molecular target: rNaV1.4 channel (Rattus norvegicus, UniProt P15390)
Construct: expressed in transfected cells; host or cells: HEK 293
Experiment: automated patch-clamp 17-pulse protocol (SDO, RFI, SSI), IonFlux Mercury, cell ensembles
Assay type: cell-based
Conditions: 1st pulse-evoked current, resting-state estimate; n = 6 ensembles; read-out: IC50 #1 (estimated KR)
PROPERTY: IC50 (µM)

molecule="CCOC(=O)c1ccc(N)cc1 [Benzocaine, benzocaine]" output_unit=µM reported_result=2240
molecule="CCN(CC)CC(=O)Nc1c(C)cccc1C [Lidocaine, lidocaine]" output_unit=µM reported_result=1280
molecule="CCCCN1CCCCC1C(=O)Nc1c(C)cccc1C (stereo not shown) [Bupivacaine, bupivacaine]" output_unit=µM reported_result=94.6
molecule="Nc1nc2ccc(OC(F)(F)F)cc2s1 [Riluzole, riluzole]" output_unit=µM reported_result=1360

* * *

Target: rNaV1.4 channel (Rattus norvegicus, UniProt P15390)
Construct: expressed in transfected cells; host or cells: HEK 293
Assay: automated patch-clamp 17-pulse protocol (SDO, RFI, SSI), IonFlux Mercury, cell ensembles
Format: cell-based
Settings: pulse #7, RFI section; read-out: IC50 #7 (after 1 ms hyperpol.)
Method: Cell culture and electrophysiology were done as described in the accompanying paper ([Lukacs et al., 2021]). The recombinant rNaV1.4 channel-expressing cell line was generated as described before ([Lukacs et al., 2018]). Transfected HEK 293 cells were maintained in Dulbecco’s Modified Eagle Medium, high glucose supplemented with 10% v/v fetal bovine serum, 100 U/ml of penicillin/streptomycin, and 0.4 mg/ml Geneticin (Life Technologies, Carlsbad, CA). […]
Each entry below carries its recorded IC50.
PROPERTY: IC50 (µM)

compound="CCCCN1CCCCC1C(=O)Nc1c(C)cccc1C (stereo not shown) [Bupivacaine, bupivacaine]" system_tested="rNaV1.4 channel (Rattus norvegicus, UniProt P15390)" property=IC50 reported_result=33.5
compound="Nc1nc2ccc(OC(F)(F)F)cc2s1 [Riluzole, riluzole]" system_tested="rNaV1.4 channel (Rattus norvegicus, UniProt P15390)" property=IC50 reported_result=42.1
compound="CCOC(=O)c1ccc(N)cc1 [Benzocaine, benzocaine]" system_tested="rNaV1.4 channel (Rattus norvegicus, UniProt P15390)" property=IC50 reported_result=290
compound="CCN(CC)CC(=O)Nc1c(C)cccc1C [Lidocaine, lidocaine]" system_tested="rNaV1.4 channel (Rattus norvegicus, UniProt P15390)" property=IC50 reported_result=71.7
